- measurement_description: viability loss in pontine glioma line – cell-based, SU-DIPG-XVII, MIPE5.0, CellTiter-Glo, qHTS, dose response (AID 1347060);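 as to AC50: cells exposed to compound for 48 hours before viability readout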
- conditions_used: CellTiter-Glo ATP luminescence
Records with an inconclusive call do not appear. Active and inactive are the calls of the source. The limit is not given here; nearly all actives have AC50 up to about 26 µM.
Entry note: the call must match one of active, inactive

INSERT INTO results (line_notation, class) VALUES
  ('CCOC(=O)[C@H]1O[C@@H]1C(=O)N[C@@H](CC(C)C)C(=O)NCCC(C)C', 'inactive');

query: Write down the call the test reported for this compound. Item: O=C(/C=C/c1cccc(S(=O)(=O)Nc2ccccc2)c1)NO
result: active

query: Quick one: CC(C)NCCCn1c(Sc2cc(Cl)cc(Cl)c2)nc2c(N)ncnc21
result: inactive

query: Quick one: CC[C@@H](Oc1cccc(CN(CCCOc2ccc(OC)cc2)c2nc3ccccc3o2)c1)C(=O)O
result: inactive

query: Quick one: COc1ccnc2[nH]cc(C(=O)C(=O)N3CCN(C(=O)c4ccccc4)C[C@H]3C)c12
result: inactive

* * *

Item-by-item account of z-score
- measurement_description: galactose survival enhancers in mitochondrial complex I cybrids – cell-based, galactose medium, ATP luminescence, primary screen (AID 1645843);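 also: positive z means more ATP and so rescue of galactose-driven cybrid death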
- conditions_used: complex I mutant cybrid cells, 72 h, stronger effect = higher value
Write the value as a bare number.

Consider the worked cases shown below.
INSERT INTO assay_data (molecule, assay_value) VALUES
  ('Brc1cc2c(cc1[C@H]1Nc3ccccc3[C@H]3C=CC[C@H]31)OCO2 (racemic)', -0.975),
  ('OC[C@H]1NC[C@@H](O)[C@@H](O)[C@@H]1O', -0.17);

query: Requested read-out: z-score. Entry: O=C(O)Cc1cc2ccccc2nc1C(=O)O
result: 0.145

query: Quick one: O=C(O)CCC/C=C\C[C@@H]1CO[C@H](C(F)(F)F)O[C@@H]1c1ccccc1O
result: 0.14

query: Quick one: CCCCCS(=O)(=O)CCCCCCCCCCn1c(-c2ccc(O)cc2)c(C)c2cc(O)ccc21
result: -0.685

query: Quick one: CCc1cc(C(C)=O)c(O)cc1OCCCCCC(C)(C)c1nn[nH]n1
result: -0.21

query: Quick one: CC1(C)Oc2ccc(C#N)cc2[C@H](N2CCCC2=O)[C@H]1O (racemic)
result: 0.155

query: Quick one: C[C@@]1(C2CCCC2)Cc2cc(OCC(=O)O)c(Cl)c(Cl)c2C1=O
result: 0.845

query: Quick one: Cc1ccc2c(=O)c3ccccc3n(CCCN)c2c1C
result: -0.58

query: Quick one: O=C(O)c1c(Sc2ccccc2)c2cc(Cl)ccc2n1Cc1ccc(Cl)cc1
result: 1.25

* * *

- measurement_description: growth inhibition, single agents and combos, ICB984, cell-based, cisplatin or BGB combos, synergistic combos for chromothripsis tumors (AID 1671451);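 also: cells exposed for 96 hours before readout; 0% = vehicle DMSO and 100% = killing by high DMSO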
- conditions_used: ICB984 medulloblastoma cells, drug combinations, BGB IC20 combo, at 0.005 µM, stronger effect = higher value
measured_quantity: inhibition (%)
Form entry: value (%) — number only.

Consider the worked cases shown below.
INSERT INTO assay_data (line_notation, measured_quantity, assay_value) VALUES
  ('COc1ccc(C(=O)C2CCN(CC(=O)N(Cc3nc4c(c(=O)[nH]3)COCC4)CC3CC3)CC2)cc1', 'inhibition', -9.62),
  ('CN[C@@H]1CN(c2ccc3c(=O)c(C(=O)O)cn(-c4nccs4)c3n2)C[C@H]1OC', 'inhibition', 19.2),
  ('O=c1[nH]cnc2ccccc12', 'inhibition', -9.29),
  ('Cc1ccc([N+](=O)[O-])cc1S(=O)(=O)N(C)/N=C/c1cnc2ccc(Br)cn12', 'inhibition', 93.2),
  ('Nc1nc(OCc2cc(Br)cs2)c2[nH]cnc2n1', 'inhibition', -4.27),
  ('Nc1ccccc1NC(=O)c1ccc(CNc2nccc(-c3cccnc3)n2)cc1', 'inhibition', 8.79);

Let's switch to this compound now.
query: Requested read-out: inhibition. Entry: CN(C)CCN1C(=O)c2cccc3cc(N)cc(c23)C1=O
result: -11.5
